The reported numbers originate from patent US20030229451A1.

tested on: Arabidopsis thaliana plants; assay: SOA1 phenotypic analysis of herbicide-treated Arabidopsis (MIC, Tmic, leaf traits); type: in vivo; settings: numeric value standardized to mock treated
outcome.measure: leafTwisting Dev.
Answer with the value's number alone.

[
  {
    "compound": "O=C(O)CNCP(=O)(O)O [Glyphosate]",
    "outcome.measure": "leafTwisting Dev.",
    "assay.value": 0
  },
  {
    "compound": "Nc1nc[nH]n1",
    "outcome.measure": "leafTwisting Dev.",
    "assay.value": 0
  },
  {
    "compound": "CP(=O)(O)CCC(N)C(=O)O (centres unmarked) [Glufosinate]",
    "outcome.measure": "leafTwisting Dev.",
    "assay.value": 1
  },
  {
    "compound": "O=C(O)COc1ccc(Cl)cc1Cl",
    "outcome.measure": "leafTwisting Dev.",
    "assay.value": 2
  },
  {
    "compound": "CCc1cccc(C)c1N(C(=O)CCl)C(C)COC (centres unmarked)",
    "outcome.measure": "leafTwisting Dev.",
    "assay.value": 1
  },
  {
    "compound": "CSc1nnc(C(C)(C)C)c(=O)n1N",
    "outcome.measure": "leafTwisting Dev.",
    "assay.value": 0
  }
]

**Q:** Quick one: leafTwisting Dev. for `O=C(O)c1cc(Oc2ccc(C(F)(F)F)cc2Cl)ccc1[N+](=O)[O-]` ?
**A:** 0

**Q:** Then this compound: `COc1nc(C)nc(NC(=O)NS(=O)(=O)c2ccccc2Cl)n1`
**A:** 1

**Q:** Now the compound `CN(C)C(=O)Nc1ccc(Cl)c(Cl)c1`
**A:** 0

**Q:** Another compound: `C[n+]1ccc(-c2cc[n+](C)cc2)cc1`
**A:** 0

**Q:** Again, but for CC(C)C1(C)N=C(c2ncccc2C(=O)O)NC1=O (centres unmarked)
**A:** 0

----------
test system: Arabidopsis thaliana; assay: MOA1 biochemical (metabolite) profiling by LC-MS and GC-MS; details: 20 min, p < 0.11
Number of Metabolites Changed: (unknown #) values, listed per item
Enter the number alone.

Would you please look over these solved cases?
[
  {
    "compound": "O=C(O)c1cc(Oc2ccc(C(F)(F)F)cc2Cl)ccc1[N+](=O)[O-]",
    "assay.value": 20
  },
  {
    "compound": "CCC(C)(CC)c1cc(NC(=O)c2c(OC)cccc2OC)on1",
    "assay.value": 21
  },
  {
    "compound": "COC(=O)NS(=O)(=O)c1ccc(N)cc1",
    "assay.value": 5
  },
  {
    "compound": "CC(C)C1(C)N=C(c2ncccc2C(=O)O)NC1=O (centres unmarked)",
    "assay.value": 3
  },
  {
    "compound": "CS(=O)(=O)c1cc(C(F)(F)F)ccc1C(=O)c1cnoc1C1CC1",
    "assay.value": 39
  },
  {
    "compound": "CP(=O)(O)CCC(N)C(=O)O (centres unmarked) [Glufosinate]",
    "assay.value": 33
  }
]

**Q:** // lookup Number of Metabolites Changed: (unknown #) | system=Arabidopsis thaliana | key= `CC(C)OC(=O)Nc1cccc(Cl)c1`
**A:** 10

**Q:** Same again, this time with `CC(C)N1C(=O)c2ccccc2NS1(=O)=O`
**A:** 6

**Q:** Let us now turn to O=C(O)CNCP(=O)(O)O [Glyphosate]
**A:** 9

**Q:** Item: `Nc1nc[nH]n1`
**A:** 13

**Q:** For CCc1cccc(C)c1N(C(=O)CCl)C(C)COC (centres unmarked) then?
**A:** 34

----------
test system: Arabidopsis thaliana plants; assay: SOA1 phenotypic analysis of herbicide-treated Arabidopsis (MIC, Tmic, leaf traits); assay type: in vivo; settings: numeric value standardized to mock treated
outcome.measure: leafTwisting Dev.
API doc: respond with a numeric literal and nothing else, no unit.

[
  {
    "compound": "CCc1cnc(C2=NC(C)(C(C)C)C(=O)N2)c(C(=O)O)c1 (stereo not shown)",
    "leafTwisting Dev.": 1
  },
  {
    "compound": "CC(C)N1C(=O)c2ccccc2NS1(=O)=O",
    "leafTwisting Dev.": 0
  },
  {
    "compound": "CCNc1nc(Cl)nc(NC(C)C)n1",
    "leafTwisting Dev.": 0
  },
  {
    "compound": "O=C(O)Cn1c(=O)sc2cccc(Cl)c21",
    "leafTwisting Dev.": 2
  },
  {
    "compound": "COC(=O)c1cc(Oc2ccc(Cl)cc2Cl)ccc1[N+](=O)[O-]",
    "leafTwisting Dev.": 0
  }
]

**Q:** Can you share its leafTwisting Dev.? I mean this compound: `COc1c(Cl)ccc(Cl)c1C(=O)O`
**A:** 2

**Q:** What about this compound? `c1cc[n+]2c(c1)-c1cccc[n+]1CC2`
**A:** 0

----------
system: Arabidopsis thaliana plants; assay: SOA1 phenotypic analysis of herbicide-treated Arabidopsis (MIC, Tmic, leaf traits); type: in vivo; settings: numeric value standardized to mock treated
outcome.measure: leafWidth Dev.
Number only, no unit.

Some molecules with recorded leafWidth Dev.:
[
  {
    "molecule": "CSc1nnc(C(C)(C)C)c(=O)n1N [Metribuzin]",
    "assay.value": "−2"
  },
  {
    "molecule": "CC(C)C1(C)N=C(c2ncccc2C(=O)O)NC1=O (stereo not drawn) [Imazapyr]",
    "assay.value": 0
  },
  {
    "molecule": "O=C(O)CNCP(=O)(O)O [Glyphosate]",
    "assay.value": 0
  }
]

Would you kindly look at the next entry?
**Q:** Recorded leafWidth Dev. of O=C(O)COc1ccc(Cl)cc1Cl [2,4-D] , please.
**A:** −1

----------
tested on: Arabidopsis thaliana plants; test: SOA1 phenotypic analysis of herbicide-treated Arabidopsis (MIC, Tmic, leaf traits); type: in vivo; settings: numeric value standardized to mock treated
outcome.measure: leafWidth Dev.

As a guide, the following entries are already answered.
[
  {
    "compound": "COc1nc(C)nc(NC(=O)NS(=O)(=O)c2ccccc2Cl)n1",
    "leafWidth Dev.": "−1"
  },
  {
    "compound": "CN(C)C(=O)Nc1ccc(Cl)c(Cl)c1",
    "leafWidth Dev.": "−2"
  },
  {
    "compound": "c1cc[n+]2c(c1)-c1cccc[n+]1CC2",
    "leafWidth Dev.": "−2"
  },
  {
    "compound": "Nc1nc[nH]n1",
    "leafWidth Dev.": 2
  },
  {
    "compound": "C[n+]1ccc(-c2cc[n+](C)cc2)cc1",
    "leafWidth Dev.": "−1"
  },
  {
    "compound": "CP(=O)(O)CCC(N)C(=O)O (centres unmarked) [Glufosinate]",
    "leafWidth Dev.": "−2"
  },
  {
    "compound": "COc1c(Cl)ccc(Cl)c1C(=O)O",
    "leafWidth Dev.": "−2"
  },
  {
    "compound": "CCNc1nc(Cl)nc(NC(C)C)n1",
    "leafWidth Dev.": "−1"
  }
]

**Q:** Can you look up the measured leafWidth Dev. of CCc1cnc(C2=NC(C)(C(C)C)C(=O)N2)c(C(=O)O)c1 (centres unmarked) for me?
**A:** 0

**Q:** Follow-up item: `CC(C)N1C(=O)c2ccccc2NS1(=O)=O`
**A:** −2

**Q:** CCc1cccc(C)c1N(C(=O)CCl)C(C)COC (centres unmarked) , same question.
**A:** −1

----------
tested on: Arabidopsis thaliana plants; experiment: SOA1 phenotypic analysis of herbicide-treated Arabidopsis (MIC, Tmic, leaf traits); assay type: in vivo; details: numeric value standardized to mock treated
outcome.measure: leafWidth Dev.

# example entries with known answers
[
  {
    "compound": "O=C(O)Cn1c(=O)sc2cccc(Cl)c21 [Benazolin]",
    "leafWidth Dev.": "−2"
  },
  {
    "compound": "O=C(O)c1cc(Oc2ccc(C(F)(F)F)cc2Cl)ccc1[N+](=O)[O-] [Acifluorfen]",
    "leafWidth Dev.": 0
  }
]

**Q:** Which measured leafWidth Dev. value corresponds to COC(=O)c1cc(Oc2ccc(Cl)cc2Cl)ccc1[N+](=O)[O-] [Bifenox] ?
**A:** 0
